Where do these numbers come from? They come from the supplement of paper PMC6897291.

Reported values of growth inhibition by drug alone for individual entries
Tested on: U-2932
Assay: growth inhibition by drug alone (1 - RLU/untreated control) (fraction); higher = stronger inhibition
Conditions: 10 nM; time (day): 6; 177Lu-lilotomab satetraxetan 0 ug/ml
# respond with the number and nothing more

molecule=CC(C)(C)c1cc(NC(=O)Nc2ccc(-c3cn4c(n3)sc3cc(OCCN5CCOCC5)ccc34)cc2)no1 system_tested=U-2932 property_label="growth inhibition by drug alone" obs_value=0.0321
molecule=Cn1c(=O)c(F)c(Nc2ccc(I)cc2F)c2c(=O)n(C[C@@H](O)CO)cnc21 system_tested=U-2932 property_label="growth inhibition by drug alone" obs_value=-0.0158

The molecule CC1=C(/C=C/C(C)=C/C=C/C(C)=C/C(=O)Nc2ccc(O)cc2)C(C)(C)CCC1 [Fenretinide] showed growth inhibition by drug alone equal to -0.136

The molecule Cc1ccc(Nc2nccc(N(C)c3ccc4c(C)n(C)nc4c3)n2)cc1S(N)(=O)=O showed growth inhibition by drug alone equal to -0.0275

The molecule CC[C@H]1OC(=O)[C@H](C)[C@@H](O[C@H]2C[C@@](C)(OC)[C@@H](O)[C@H](C)O2)[C@H](C)[C@@H](O[C@@H]2O[C@H](C)C[C@H](N(C)C)[C@H]2O)[C@](C)(O)C[C@@H](C)CN(C)[C@H](C)[C@@H](O)[C@]1(C)O [Azithromycin (Zithromax)] showed growth inhibition by drug alone equal to -0.0338

The molecule CCOc1ccc(Nc2nc(-c3c(C)nc4ccccn34)cs2)cc1 showed growth inhibition by drug alone equal to 0.0852

The molecule CN(N=O)C(=O)N[C@@H](C=O)[C@@H](O)[C@H](O)[C@H](O)CO [Streptozotocin (Zanosar)] showed growth inhibition by drug alone equal to 0.111

* * *

Test system: U-2932
Assay: growth inhibition by drug plus 177Lu-lilotomab satetraxetan (1 - RLU/untreated control) (fraction); higher = stronger inhibition
Settings: 1000 nM; time (day): 5; 177Lu-lilotomab satetraxetan 1 ug/ml
Kind request: treat 0.2 as inclusive, so growth inhibition by drug plus 177Lu-lilotomab satetraxetan at 0.2 or higher is 1.0, anything lower is 0.0.

Some solved entries appear below for comparison.
molecule=CN(C)CCCN=c1c2ccccc2n(C)c2[nH]c(=O)n(C)c(=O)c12 system_tested=U-2932 label_value=0.0
molecule=CCC1=C[C@@H]2CN(C1)Cc1c([nH]c3ccccc13)[C@@](C(=O)OC)(c1cc3c(cc1OC)N(C)[C@H]1[C@@](O)(C(=O)OC)[C@H](OC(C)=O)[C@]4(CC)C=CCN5CC[C@]31[C@@H]54)C2 system_tested=U-2932 label_value=1.0
molecule=CCN1CCN(Cc2ccc(-c3cc4c(N[C@H](C)c5ccccc5)ncnc4[nH]3)cc2)CC1 system_tested=U-2932 label_value=0.0
molecule=CCN(CC)C(=S)SSC(=S)N(CC)CC system_tested=U-2932 label_value=1.0
molecule=CC(=O)Nc1nc(C)c(-c2ccc(Cl)c(S(=O)(=O)NCCO)c2)s1 system_tested=U-2932 label_value=1.0

Dear colleague, could you confirm whether COc1cc2/c(=N/c3ccc(Br)cc3F)nc[nH]c2cc1OCC1CCN(C)CC1 [Vandetanib (Zactima)] has growth inhibition by drug plus 177Lu-lilotomab satetraxetan at or above 0.2?
0.0

Dear colleague, could you confirm whether O=C(Nc1ccccc1-c1cn2c(CN3CCNCC3)csc2n1)c1cnc2ccccc2n1 has growth inhibition by drug plus 177Lu-lilotomab satetraxetan at or above 0.2?
0.0

Dear colleague, could you confirm whether COc1ccc(CCN(C)CCCOc2ccc(S(=O)(=O)c3c(C(C)C)n(C)c4ccccc34)cc2)cc1OC has growth inhibition by drug plus 177Lu-lilotomab satetraxetan at or above 0.2?
0.0

Dear colleague, could you confirm whether CC(C)c1onc(-c2c(Cl)cccc2Cl)c1COc1ccc(/C=C/c2cccc(C(=O)O)c2)c(Cl)c1 has growth inhibition by drug plus 177Lu-lilotomab satetraxetan at or above 0.2?
0.0

Dear colleague, could you confirm whether C=CCn1c(=O)c2cnc(Nc3ccc(N4CCN(C)CC4)cc3)nc2n1-c1cccc(C(C)(C)O)n1 has growth inhibition by drug plus 177Lu-lilotomab satetraxetan at or above 0.2?
1.0

Dear colleague, could you confirm whether COc1c(C)c2c(c(O)c1C/C=C(\C)CCC(=O)O)C(=O)OC2 [Mycophenolic (Mycophenolate)] has growth inhibition by drug plus 177Lu-lilotomab satetraxetan at or above 0.2?
1.0

Dear colleague, could you confirm whether OCCn1cc(-c2ccc3c(c2)CC/C3=N\O)c(-c2ccncc2)n1 has growth inhibition by drug plus 177Lu-lilotomab satetraxetan at or above 0.2?
0.0
